# test: E. coli Tat export inhibitors, dose response, cherry-pick, set 2, plate reader (AID 504941)
# settings: E. coli Tat transport reporter; series mostly up to 38 µM
In all, about 1,200 compounds went through this assay and about 170 (14%) were called active. Only a sample is shown. Entries with a potency or affinity are not part of this list.
quantity-name: outcome

{"columns": ["mol-smiles", "result"],
 "data": [
  ["COc1cccc(CN2CCN(Cc3cc(OC)c(OC)cc3[N+](=O)[O-])CC2)c1", "inactive"],
  ["O=C(CN1CCN(c2ccc(O)cc2)CC1)Nc1ccc2c(c1)OCCO2", "inactive"],
  ["CC1CCN(C(=O)C2(NC(=O)Nc3cccc(F)c3)CCCCC2)CC1", "inactive"],
  ["N#Cc1ccccc1CSc1ccccn1", "inactive"],
  ["C[C@@H]1C(c2ccc(F)cc2)=NN(c2ccccc2)[C@H]1C(=O)N1CCOC1=O", "inactive"],
  ["Nc1nc(CN2CCCCC2)cs1", "inactive"]
]}

====

# test: E. coli Tat export inhibitors, dose response, cherry-pick, set 2, plate reader (AID 504941)
# settings: E. coli Tat transport reporter; series mostly up to 38 µM
The whole screen tested about 1,200 compounds, of which about 170 (14%) were called active. The list is a sample of the results. Potency and affinity values are given separately.

{"columns": ["molecule", "outcome"],
 "data": [
  ["CC(Sc1nnc(-c2ccccc2F)n1C1CC1)C(=O)NCc1ccco1 (stereo unspecified)", "inactive"],
  ["O=C(Nc1ccc(C(=O)O)cc1)/C(=C\\C=C\\c1ccccc1)NC(=O)c1ccccc1Br", "inactive"],
  ["Cc1ccc(/C=N/NC(=O)c2ccc(Cn3cc([N+](=O)[O-])cn3)o2)cc1", "inactive"],
  ["O=C(N/C(=C/c1cccc([N+](=O)[O-])c1)C(=O)N1CCOCC1)c1ccc(Br)cc1", "inactive"],
  ["CC(Sc1nc2ccccc2c(=O)n1C)C(=O)NC1CCCCC1C (stereo unspecified)", "inactive"],
  ["O=C(Nc1cccc(NC(=O)c2ccco2)c1)c1ccccc1", "inactive"],
  ["O=S(=O)(/N=C(/Nc1ccccc1)c1ccccc1)c1cccs1", "inactive"],
  ["COc1ccccc1NS(=O)(=O)c1cc(NC(C)=O)ccc1N1CCCCC1", "inactive"],
  ["CCNC(=O)c1ccc(NS(=O)(=O)c2ccccc2)cc1", "inactive"],
  ["O=c1cc(O)nc[nH]1", "inactive"],
  ["CCN(CC)S(=O)(=O)N1CCC(C(=O)NC2CCCC2)CC1", "inactive"],
  ["C=CCNc1ccccc1S(=O)(=O)NCc1ccccc1", "inactive"],
  ["COc1cc(C(=O)Oc2cc(C)cc(C)c2)cc(OC)c1OC", "inactive"],
  ["COCCCNc1nc2c(c(=O)[nH]c(=O)n2C)n1CC(O)COc1cccc(C)c1 (stereo unspecified)", "inactive"],
  ["Cc1ccc(/C=C2/C(=N)N3N=C(CC(=O)N4CCCC4)SC3=NC2=O)o1", "inactive"],
  ["CC(C)c1ccc(NC(=O)c2snc3ccc(Cl)cc23)cc1", "inactive"]
]}
